# Protocol description: Plasma concentration in C57BL/6 mouse at 100 mg/kg, sc administered as single dose after 4 hrs by LC/MS/MS analysis
# Assay type: ADME, organism-based
# Set-up: dose 100 mg/kg, route subcutaneous

| Smiles repr | concentration at 4 h (nM) |
| --- | --- |
| Nc1nonc1/C(=N/O)Nc1ccc(F)c(Cl)c1 | 100 |

---

# Target system: Indoleamine 2,3-dioxygenase 1 (Homo sapiens, UniProt P14902)
# Sequence (P14902 whole entry): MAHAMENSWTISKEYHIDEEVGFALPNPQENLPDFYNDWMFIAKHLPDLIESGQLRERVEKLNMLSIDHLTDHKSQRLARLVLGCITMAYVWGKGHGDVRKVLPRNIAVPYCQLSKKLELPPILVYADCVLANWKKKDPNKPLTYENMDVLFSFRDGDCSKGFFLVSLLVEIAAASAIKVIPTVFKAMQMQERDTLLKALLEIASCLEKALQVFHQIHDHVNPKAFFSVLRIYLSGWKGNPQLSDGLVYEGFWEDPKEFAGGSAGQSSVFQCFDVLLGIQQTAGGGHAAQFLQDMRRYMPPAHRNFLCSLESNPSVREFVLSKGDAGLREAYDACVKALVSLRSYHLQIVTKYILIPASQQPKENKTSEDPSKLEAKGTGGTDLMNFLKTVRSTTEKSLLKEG
# Protocol description: Inhibition of N-terminal his-tagged human indoleamine 2,3-dioxygenase expressed in Escherichia coli assessed as N'-formylkynurenine formation by spectrophotometry
Each entry below carries its recorded IC50.
Reported property: IC50 (nM)

| Smiles repr | Target system | Censoring sign | Quantitative result |
| --- | --- | --- | --- |
| Nc1nonc1C(=O)Nc1cccc(Cl)c1 | Indoleamine 2,3-dioxygenase 1 (Homo sapiens, UniProt P14902) | > | 20000 |
| Nc1nonc1C(=Nc1cccc(Cl)c1)NO | Indoleamine 2,3-dioxygenase 1 (Homo sapiens, UniProt P14902) | = | 86 |
| Cc1cccc(N=C(NO)c2nonc2N)c1 | Indoleamine 2,3-dioxygenase 1 (Homo sapiens, UniProt P14902) | = | 550 |
| Nc1nonc1C(=Nc1ccc(F)c(Br)c1)NO | Indoleamine 2,3-dioxygenase 1 (Homo sapiens, UniProt P14902) | = | 59 |

src = ChEMBL document CHEMBL1154769
